Hello, the source for this data is patent US20230096028A1, in case you need it.

# System: PC-9 cells (EGFR Ex19Del)
# TEST_NAME: Potency Assay: pERK (SOS1 pERK IC50 Assay, AlphaLISA SureFire Ultra p-ERK1/2)
# Assay type: cell-based
# EXPERIMENTAL_CONDITIONS: Homo sapiens, PC-9, 1 h, read-out: SOS1 pERK IC50
pIC50: −log10 of the molar value. Where a name gives a salt, the structure may show the parent alone.
OUTCOME_MEASURE: pIC50

Worked set:
1) C[C@@H](Nc1nc(Cl)nc2c1CN(C(=O)N1CCOCC1)C2)c1cccc2c1COCC2(F)F	> 6.00
2) Cc1nc2c(c(N[C@H](C)c3cc(N)cc(C(F)(F)F)c3)n1)CN(C(=O)OC1CCOCC1)C2	> 6.00
3) C[C@@H](Nc1nc(Cl)nc2c1CN(C(=O)N1CCOCC1)C2)c1cccc(C(F)(F)COC2CC2)c1F	> 6.00
4) CC(Nc1nc(Cl)nc2c1CN(C(=O)N1CCOCC1)C2)c1cccc(S(N)(=O)=O)c1 (stereo not drawn)	< 6.00
5) CC(Nc1nc(Cl)nc2c1CN(C(=O)N1CCOCC1)C2)c1cccc(C2(F)CNC2)c1 (stereo not drawn)	< 6.00
6) C[C@@H](Nc1nc(Cl)nc2c1CN(C(=O)N1CCOCC1)C2)c1cccc(C(F)(F)COC2CC2)c1	> 6.00
7) C[C@@H](Nc1nc(Cl)nc2c1CN(C(=O)N1CCOCC1)C2)c1cccc(C(F)F)c1Cl	> 6.00
8) C[C@@H](Nc1nc(Cl)nc2c1CN(C(=O)N1CCOCC1)C2)c1cccc(C(F)F)c1Br	> 6.00

I need pIC50 for every entry listed below, if you could help.
1. CC(Nc1nc(Cl)nc2c1CN(C(=O)N1CCOCC1)C2)c1cccc(C2CC2)c1 (stereo not drawn)
2. C[C@@H](Nc1nc(Cl)nc2c1C[N+](=C(N(C)C)N(C)C)C2)c1cccc(C(F)F)c1F [Example 529, formate]
3. C[C@@H](Nc1nc(Cl)nc2c1CN(C(=O)N1CCOCC1)C2)c1cccc(C(F)(F)C2CNCCO2)c1 (stereo partly drawn)
4. CCC(Nc1nc(Cl)nc2c1CN(C(=O)N1CCOCC1)C2)c1cc(N)cc(C(F)(F)F)c1 (stereo not drawn)

### Response
< 6.00
< 6.00
> 6.00
> 6.00

----------
Give IC50 for every item shown.
# ASSAY_TARGET: SOS1 catalytic domain (residues 564-1049) (Homo sapiens, UniProt Q07889)
# Sequence (Q07889 564-1049): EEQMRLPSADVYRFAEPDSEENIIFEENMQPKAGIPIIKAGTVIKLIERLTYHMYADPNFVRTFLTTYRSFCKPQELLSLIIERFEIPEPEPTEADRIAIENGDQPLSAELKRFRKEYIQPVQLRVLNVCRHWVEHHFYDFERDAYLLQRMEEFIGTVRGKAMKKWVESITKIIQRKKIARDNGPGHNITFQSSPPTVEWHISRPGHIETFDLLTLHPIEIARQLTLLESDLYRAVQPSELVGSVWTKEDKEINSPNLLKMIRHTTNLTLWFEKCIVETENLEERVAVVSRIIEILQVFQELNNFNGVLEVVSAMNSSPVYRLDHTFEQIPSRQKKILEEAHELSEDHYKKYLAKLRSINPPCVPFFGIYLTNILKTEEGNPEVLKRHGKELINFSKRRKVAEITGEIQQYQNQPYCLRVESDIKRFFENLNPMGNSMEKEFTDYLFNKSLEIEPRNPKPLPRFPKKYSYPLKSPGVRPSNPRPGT

1. C[C@@H](Nc1nc(Cl)nc2c1CN(C(=O)C1C3COCC31)C2)c1cc(N)cc(C(F)(F)F)c1 (stereo partly shown) [Example 94]	< 1000 nM
2. C[C@@H]1CN(C(=O)N2Cc3nc(Cl)nc(N[C@H](C)c4cc(N)cc(C(F)(F)F)c4)c3C2)C[C@H](C)O1 [Example 163]	< 1000 nM
3. CNC(=O)N1Cc2nc(C)nc(N[C@H](C)c3cc(N)cc(C(F)(F)F)c3)c2C1 [Example 122]	> 1000 nM
4. CC(Nc1nc(Cl)nc2c1CN(C(=O)N1CCOCC1)C2)c1ccc(-c2ccccc2)s1 (stereo not shown) [Example 532]	> 1000 nM

Would you be so kind as to report IC50 for each listed record?
1. C[C@@H](Nc1nc(Cl)nc2c1CN(C(=O)C1(O)COC1)C2)c1cccc(C(F)F)c1F [Example 300]
2. C[C@@H](Nc1nc(Cl)nc2c1CN(S(=O)(=O)C1CCOCC1)C2)c1cc(N)cc(C(F)(F)F)c1 [Example 51]
3. C[C@@H](Nc1nc(Cl)nc2c1CN(C(=O)[C@@H]1COCCN1)C2)c1cccc(C(F)F)c1F [Example 309]

### Response
["< 1000 nM", "< 1000 nM", "< 1000 nM"]

----------
# ASSAY_TARGET: SOS1 catalytic domain (residues 564-1049) (Homo sapiens, UniProt Q07889)
pKd: −log10 of the molar value.
I'd be grateful if you could share measured pKd for these entries.

Solved entries (count: 6):
1. C[C@@H](Nc1nc(Cl)nc2c1CN(C(=O)N1CCNc3ncccc31)C2)c1cccc(C(F)F)c1F	> 6.40
2. C[C@@H](Nc1nc(Cl)nc2c1CN(C(=O)N1CC3CCC(C1)N3C)C2)c1cccc(C(F)F)c1F	> 6.40
3. C[C@@H](Nc1nc(Cl)nc2c1CN(C(=O)[C@@H]1CNC[C@@H]1C)C2)c1cc(N)cc(C(F)(F)F)c1	> 6.40
4. C[C@@H](Nc1nc(Cl)nc2c1CN(C(=O)N1CC3CCC(C1)N3)C2)c1cccc(C(F)F)c1F	> 6.40
5. CCC(Nc1nc(Cl)nc2c1CN(C(=O)N1CCOCC1)C2)c1cc(N)cc(C(F)(F)F)c1 (stereo not drawn)	< 6.40
6. C[C@@H](Nc1nc(Cl)nc2c1CN(C(=O)c1ccccn1)C2)c1cc(N)cc(C(F)(F)F)c1	< 6.40

// input: 8 compounds below; output: pKd for each
1. C[C@@H]1CN(C(=O)N2Cc3nc(Cl)nc(N[C@H](C)c4cc(N)cc(C(F)(F)F)c4)c3C2)C[C@H](C)N1
2. C[C@@H](Nc1nc(Cl)nc2c1CN(C(=O)c1ncccn1)CC2)c1cc(N)cc(C(F)(F)F)c1
3. C[C@@H](Nc1nc(Cl)nc2c1CN(C(=O)N1CCCNCC1)C2)c1cccc(C(F)(F)F)c1
4. C[C@@H](Nc1nc(Cl)nc2c1CN(C(=O)c1cnccn1)CC2)c1cc(N)cc(C(F)(F)F)c1
5. Cc1cn2nnc(C(=O)N3Cc4nc(Cl)nc(N[C@H](C)c5cc(N)cc(C(F)(F)F)c5)c4C3)c2c(=O)[nH]1
6. C[C@@H](Nc1nc(Cl)nc2c1CN(C(=O)C1CC(=O)N(c3ccc4c(c3)OCO4)C1)C2)c1cc(N)cc(C(F)(F)F)c1 (stereo partly drawn)
7. C[C@@H](Nc1nc(Cl)nc2c1CN(C(=O)N1CCNCC1c1cccnc1)C2)c1cccc(C(F)F)c1F (stereo partly drawn)
8. C[C@@H](Nc1nc(Cl)nc2c1CN(C(=O)N1CCOCC1)C2)c1cccc(C(F)(F)C2COCCN2)c1 (stereo partly drawn)

### Response
1. > 6.40
2. < 6.40
3. > 6.40
4. < 6.40
5. > 6.40
6. > 6.40
7. > 6.40
8. > 6.40

Could you report pKd for every entry in the following list?
1. C[C@@H](Nc1nc(Cl)nc2c1CN(C(=O)c1cc(N3CCOCC3)ccn1)CC2)c1cc(N)cc(C(F)(F)F)c1
2. COc1ccc2c(c1)OCCN2C(=O)N1Cc2nc(Cl)nc(N[C@H](C)c3cc(N)cc(C(F)(F)F)c3)c2C1
3. CC(Nc1nc(Cl)nc2c1CN(C(=O)N1CCOCC1)C2)c1cccc2c1OCCC2(F)F (stereo not drawn)
4. COC1(C(=O)N2Cc3nc(CN)nc(N[C@H](C)c4cccc(C(F)(F)F)c4)c3C2)CCOCC1

### Response
1. < 6.40
2. > 6.40
3. > 6.40
4. > 6.40

----------
# ASSAY_TARGET: SOS1 catalytic domain (residues 564-1049) (Homo sapiens, UniProt Q07889)
# TEST_NAME: Mode of Action Assay: inhibition of SOS1 nucleotide exchange activity (SOS1 TR-FRET IC50 Assay)
pIC50: −log10 of the molar value.
Assign pIC50 to each entry below.

1) C[C@@H](Nc1nc(Cl)nc2c1CN(C(=O)N1C3COCC1COC3)C2)c1cccc(C(F)F)c1F	> 6.00
2) C[C@@H](Nc1nc(Cl)nc2c1CN(C(=O)CN1CCOCC1)C2)c1cc(N)cc(C(F)(F)F)c1	> 6.00

Batch request: pIC50 for each of the following compounds.
1. Cc1c(C(C)Nc2nc(Cl)nc3c2CN(C(=O)N2CCOCC2)C3)cccc1C(F)(F)CO (centres unmarked)
2. C[C@@H](Nc1nc(Cl)nc2c1CN(C(=O)C1(C#N)CCN(C)CC1)C2)c1cccc(C(F)F)c1F

### Response
["> 6.00", "> 6.00"]

Report pIC50 for each item below.
1. C[C@@H](Nc1nc(Cl)nc2c1C[C@H](N1CCOCC1)CC2)c1cc(N)cc(C(F)(F)F)c1 (single isomer, unassigned)
2. C[C@@H](Nc1nc(Cl)nc2c1CN(C(=O)c1ccccn1)C2)c1cc(N)cc(C(F)(F)F)c1
3. C[C@@H](Nc1nc(Cl)nc2c1CN(C(=O)c1ncccc1C(F)(F)F)CC2)c1cc(N)cc(C(F)(F)F)c1
4. C[C@@H](Nc1nc(Cl)nc2c1CN(C(=O)C13CCC(CC1)O3)CC2)c1cc(N)cc(C(F)(F)F)c1
5. CC(Nc1nc(Cl)nc2c1CN(C(=O)N1CCOCC1)C2)c1cccc(S(F)(F)(F)(F)F)c1 (centres unmarked)
6. C[C@@H](Nc1nc(Cl)nc2c1CN(C(=O)c1ncccn1)CC2)c1cc(N)cc(C(F)(F)F)c1
7. C[C@@H](Nc1nc(Cl)nc2c1CN(C(=O)N1CCOCC1)C2)c1cc(F)cc(C(F)(F)F)c1

### Response
1. > 6.00
2. > 6.00
3. < 6.00
4. < 6.00
5. < 6.00
6. < 6.00
7. < 6.00
